ASSAYED_TARGET: PPM1D (Homo sapiens)
Sequence (O15297 1-420): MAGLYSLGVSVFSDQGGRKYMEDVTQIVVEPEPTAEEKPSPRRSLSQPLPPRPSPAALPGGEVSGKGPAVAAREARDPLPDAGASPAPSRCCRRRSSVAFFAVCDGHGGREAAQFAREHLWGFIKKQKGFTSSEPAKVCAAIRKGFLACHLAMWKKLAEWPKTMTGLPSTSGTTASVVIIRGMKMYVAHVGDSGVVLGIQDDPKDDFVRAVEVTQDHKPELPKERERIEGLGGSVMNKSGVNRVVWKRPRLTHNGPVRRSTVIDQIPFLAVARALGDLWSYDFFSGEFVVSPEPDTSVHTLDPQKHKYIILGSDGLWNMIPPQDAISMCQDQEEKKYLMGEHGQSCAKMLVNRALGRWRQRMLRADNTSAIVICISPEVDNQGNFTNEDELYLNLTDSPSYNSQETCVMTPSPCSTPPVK
PROPERTY_MEASURED: pIC50
Interpret pIC50 as the negative base-10 log of the concentration measured in mol/L.

Sample CC[Si](CC)(CC)O[C@@H]1C[C@H](C)C[C@@H]2[C@@H]1C[C@H](O[Si](C)(C)C(C)(C)C)[C@@H]1[C@](C)(CO)C[C@H](O)C[C@@]21C [Example 1] ; pIC50 observed: 6.37

Sample CCOC(=O)C=CC12CCC(C)(C1CO[Si](C(C)C)(C(C)C)C(C)C)C2(C)C (centres unmarked) [Example 5] ; pIC50 observed: 6.03

----------
ASSAYED_TARGET: PPM1D protein catalytic domain (positions 1 to 420), His tag fusion (Homo sapiens)
Construct: the catalytic domain (the positions 1 to 420) of PPM1D protein; His tag; made in house; host or cells: E. coli (pColdI vector)
ASSAY_COMMENT: PPM1D-inhibitory activity, single concentration (Test Example 1, BIOMOL GREEN free phosphate)
Type: biochemical
Parameters: dose or concentration left out as unconfirmed
EXPERIMENTAL_PARAMETERS: read-out: Rate of PPM1D inhibition (: %); phospho-p53 (Ser 15) peptide substrate, 30° C., 10 minutes; read-out: Rate of PPM1D inhibition (%)
So I've got a bunch of compounds here, and I need their inhibition values.
Your answer should be a plain number; it is taken to be in %.

Sample CC[Si](CC)(CC)O[C@@H]1C[C@H](C)C[C@@H]2[C@@H]1C[C@H](O[Si](C)(C)C(C)(C)C)[C@@H]1[C@](C)(CO)C[C@H](O)C[C@@]21C [Example 1] ; inhibition observed: 97.1

Sample C=C1C2(/C=C/CO)CC[C@@]1(C)C2(C)C [Comparative Example 4, reference compound] ; inhibition observed: 0

Sample CCOC(=O)C=CC12CCC(C)(C1CO[Si](C(C)C)(C(C)C)C(C)C)C2(C)C (centres unmarked) [Example 5] ; inhibition observed: 92.7

Sample COC(=O)[C@]1(C)CC(=O)C[C@]2(C)[C@@H]3C[C@@H](C)C[C@@H](OC(C)=O)[C@H]3CC(=O)[C@H]21 [Comparative Example 2, reference compound] ; inhibition observed: 0

Sample CCOC(=O)/C=C/C12CC[C@](C)([C@@H]1CO)C2(C)C [Comparative Example 3, reference compound] ; inhibition observed: 0
